Entry source: patent US20250361230A1

- TARGET UNDER TEST: AKT (Homo sapiens, UniProt P31749)
- Sequence (P31749 whole entry): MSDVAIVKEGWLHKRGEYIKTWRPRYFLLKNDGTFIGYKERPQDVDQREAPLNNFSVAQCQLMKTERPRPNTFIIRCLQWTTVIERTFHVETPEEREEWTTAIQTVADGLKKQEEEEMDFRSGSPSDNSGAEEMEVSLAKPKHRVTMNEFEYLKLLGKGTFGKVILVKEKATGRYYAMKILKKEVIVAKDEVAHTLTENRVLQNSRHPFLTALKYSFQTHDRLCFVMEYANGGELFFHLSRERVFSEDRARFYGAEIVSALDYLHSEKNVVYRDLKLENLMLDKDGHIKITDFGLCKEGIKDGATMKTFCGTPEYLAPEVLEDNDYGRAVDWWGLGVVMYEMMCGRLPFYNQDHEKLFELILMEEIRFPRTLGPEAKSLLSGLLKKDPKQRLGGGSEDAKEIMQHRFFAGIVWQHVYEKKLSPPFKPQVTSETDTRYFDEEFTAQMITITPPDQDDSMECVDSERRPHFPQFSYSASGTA
- METHOD SUMMARY: RBC HotSpot kinase assay (33P-ATP, P81 filter-binding), AKT
- Type: biochemical
- SETUP CONDITIONS: Table 28, biochemical kinase assay; read-out: AKT IC50
TEST READOUT: pIC50
Interpret pIC50 as the negative base-10 log of the concentration measured in mol/L.

These solved cases illustrate the format of a correct answer.
COMPOUND | pIC50
CC1(c2ccc(-c3ccnc4[nH]ccc34)cc2)CCNCC1 | 6.70
C[C@@H]1CN(C(=O)CN)C[C@H](C)C1(O)c1cnc(-c2ccnc3[nH]cc(F)c23)cc1F (stereo partly shown) | 5.40
Cc1cc(-c2ccnc3[nH]cc(F)c23)ncc1[C@@]1(O)[C@H](C)CN(C2CCC2)C[C@@H]1C | 5.21
C[C@@H]1CN(C2CCNCC2)C[C@H](C)[C@@]1(O)c1c(F)cc(-c2ccnc3[nH]cc(F)c23)cc1F | 7.00
O=C([C@@H]1CCCN1)N1CCC(O)(c2ccc(-c3ccnc4[nH]cc(F)c34)cc2)CC1 | 5.84
Cc1cncc(-c2c[nH]c3nccc(-c4ccc(C5(O)CCNCC5)cc4)c23)c1 | 5.37

// query Would you mind telling me what pIC50 value was observed for "CC(C)c1cc(-c2ccnc3[nH]cc(-c4ccccc4)c23)ccc1CN" ?
// result 6.13

// query Would you mind telling me what pIC50 value was observed for CC1CC(c2ccc(-c3ccnc4[nH]ccc34)cc2)CC(C)N1 (stereo not shown) ?
// result 5.84

// query Would you mind telling me what pIC50 value was observed for "CN1CCC(O)(c2ccc(-c3ccnc4[nH]cc(F)c34)cc2)CC1" ?
// result 5.97

// query Would you mind telling me what pIC50 value was observed for "CN(C)C(C)(C)c1ccc(-c2ccnc3[nH]ccc23)cc1" ?
// result 5.90

// query Would you mind telling me what pIC50 value was observed for "C[C@@H]1CNC[C@H](C)[C@@]1(O)c1ccc(-c2ccnc3[nH]cc(F)c23)cc1" ?
// result 6.83

// query Would you mind telling me what pIC50 value was observed for "Cc1cc(-c2ccnc3[nH]cc(F)c23)ccc1[C@@]1(O)[C@H](C)CNC[C@@H]1C" ?
// result 7.05
